# protocol notes: Dissolution test of poorly-soluble substances using 2nd fluid for disintegration test (pH 6.8) of the Japanese Pharmacopoeia
# Type: physicochemical
# condition details: after dissolution test for 360 minutes; Second disintegration test medium (pH 6.8); 37±0.5° C.
measured attribute: Dissolved amount

COc1ccc(Cl)cc1C(=O)NCCc1ccc(S(=O)(=O)NC(=O)NC2CCCCC2)cc1 [compound 11, Glibenclamide]    8.0 µg/mL
CC(C)(Sc1cc(C(C)(C)C)c(O)c(C(C)(C)C)c1)Sc1cc(C(C)(C)C)c(O)c(C(C)(C)C)c1    28.0 µg/mL
Nc1nc(N)c2nc(-c3ccccc3)c(N)nc2n1    18.4 µg/mL

--- query ---
Dissolved amount for `CC(=O)Oc1ccccc1C(=O)O` ? 6552.7 µg/mL

---

# protocol notes: Dissolution test of poorly-soluble substances using distilled water
# Format: physicochemical
# condition details: water; elution time 3 min
measured attribute: Dissolved amount (µg/mL)
Dear colleague, please return just the value in µg/mL, with no unit written.

In the examples that follow, each entry is paired with its recorded Dissolved amount.
CCn1cc(C(=O)O)c(=O)c2cc(F)c(N3CCNCC3)cc21 [compound 27, Norfloxacin]    455.9
COc1ccc2c(c1)c(CC(=O)O)c(C)n2C(=O)c1ccc(Cl)cc1 [compound 20, Indomethacin]    7.8
Cn1c(=O)c2[nH]cnc2n(C)c1=O [Comparative Example 15, Theophylline]    7897.9

Query (molecule): CC(=O)Oc1ccccc1C(=O)O [Comparative Example 1-3, Aspirin] ; field requested: Dissolved amount 2934.9

Which measured Dissolved amount value corresponds to CC1(C)[C@@H](O[C@H]2O[C@H](C(=O)O)[C@@H](O)[C@H](O)[C@H]2O[C@@H]2O[C@H](C(=O)O)[C@@H](O)[C@H](O)[C@H]2O)CC[C@]2(C)[C@H]3C(=O)C=C4[C@@H]5C[C@@](C)(C(=O)O)CC[C@]5(C)CC[C@@]4(C)[C@]3(C)CC[C@@H]12 [Comparative Example 16, Ammonium Glycyrrhizinate] ? 4621.4

Returns the measured Dissolved amount for the input molecule. Input: CC(C)(Sc1cc(C(C)(C)C)c(O)c(C(C)(C)C)c1)Sc1cc(C(C)(C)C)c(O)c(C(C)(C)C)c1 [Comparative Example 5-3, Probucol] 2.7

---

# protocol notes: Dissolution test of poorly-soluble substances using 2nd fluid for disintegration test (pH 6.8) of the Japanese Pharmacopoeia
# Type: physicochemical
# condition details: 2nd fluid for disintegration test; elution time 3 min
measured attribute: Dissolved amount (µg/mL)
State just the number; it will be interpreted in µg/mL.

These recorded examples may help you get a feel for the data.
CC(=O)Nc1nnc(S(N)(=O)=O)s1 [compound 23, Acetazolamide]    1331.6
CC1(C)[C@@H](O[C@H]2O[C@H](C(=O)O)[C@@H](O)[C@H](O)[C@H]2O[C@@H]2O[C@H](C(=O)O)[C@@H](O)[C@H](O)[C@H]2O)CC[C@]2(C)[C@H]3C(=O)C=C4[C@@H]5C[C@@](C)(C(=O)O)CC[C@]5(C)CC[C@@]4(C)[C@]3(C)CC[C@@H]12 [Comparative Example 16, Ammonium Glycyrrhizinate]    7012.3

Which Dissolved amount is listed for CC(=O)O[C@]1(C(C)=O)CC[C@H]2[C@@H]3C=C(Cl)C4=CC(=O)CC[C@]4(C)[C@H]3CC[C@@]21C [Comparative Example 3-2, Chlormadinone acetate] ? 1.4
